tested on: MALME-3M melanoma; test: NCI-60 one-dose screen, 48 h; details: 10 µM unless noted
The panel holds about 83,000 compounds, 20% with a hit somewhere; the sample as a whole holds those more often. Calls of active or inactive are those of the source. Rule for the calls: active = growth percent below 10; inactive = the rest.
Hi there, use one of these labels in your reply, thanks! active, inactive

Worked examples follow.
[[record]]
compound = "O=C1C=C(Nc2ccccc2)c2ncccc2C1=O"
assigned_label = "active"

[[record]]
compound = "CCOC(=O)n1cc(-c2nonc2-c2cn(C)c3ccc(OC)cc23)c2cc(F)ccc21"
assigned_label = "inactive"

[[record]]
compound = "CCCCC1=C(Br)C(=O)c2nc(C)ccc2C1=O"
assigned_label = "inactive"


For O=C(Cc1ccc(F)cc1)c1ccccc1 , what call appears in the results of this test?
inactive

For O=C(NNc1ccccc1)C1CCCN1 (stereo not given) , what call appears in the results of this test?
inactive

For CN(C)CC1(C)Cc2ccsc2C1O (stereo not given) , what call appears in the results of this test?
inactive

For C=C1CC[C@@H]2[C@](C)(COC(C)=O)[C@H](OC(C)=O)CC[C@@]2(C)[C@@H]1CC(Nc1ccc(S(=O)(=O)Nc2nccs2)cc1)C1=CCOC1=O (stereo not given in full) , what call appears in the results of this test?
active

For COc1c(O)c(O)cc2c3c(oc12)CC(c1ccc2c(c1)OCO2)CC3=O (stereo not given) , what call appears in the results of this test?
inactive

For COc1cc(/C=C/C(=O)c2ccc(NC(=O)CSc3nnc(-c4cc(-c5ccccc5)nc5ccccc45)n3-c3ccccc3)cc2)cc(OC)c1OC , what call appears in the results of this test?
inactive

For O=S(=O)(Nc1cc(Sc2cccc3cccnc23)c(O)c2ccccc12)c1ccc(F)cc1 , what call appears in the results of this test?
active

---

system: SK-OV-3 ovarian; assay: NCI-60 one-dose screen, 48 h (100 = growth as untreated, 0 = no growth, -100 = all killed); details: 10 µM
Compounds without any hit were thinned out: in the full panel of roughly 83,000, 20% have a hit. Activity calls are given as the source filed them. How the source made its calls: active means growth percent below 10; inactive means the rest.
Quantity Measured: growth

Check out these entries, answers already filled in.
[[record]]
item_smiles = "CC(=O)/C=C/c1ccc(OCc2ccc(Cl)cc2)cc1"
assay_value = "110% (inactive)"

[[record]]
item_smiles = "CC(=O)/C=C/c1ccc(N(C)Cc2ccc(C(C)(C)C)cc2)cc1"
assay_value = "98.4% (inactive)"

[[record]]
item_smiles = "CC(=O)/C=C/c1ccc(OCc2ccc(C(C)(C)C)cc2)cc1"
assay_value = "77.8% (inactive)"

[[record]]
item_smiles = "COc1ccc(C(=O)/C=C/c2ccc(OCc3cccc(C(F)(F)F)c3)c(OC)c2)cc1OC"
assay_value = "88.7% (inactive)"

[[record]]
item_smiles = "CCN(Cc1ccccc1)c1ccc(/C=C2\\COc3ccccc3C2=O)cc1"
assay_value = "89.4% (inactive)"

[[record]]
item_smiles = "O=C(/C=C/c1cccc(Oc2ccc(Cl)cc2)c1)c1ccccc1"
assay_value = "114% (inactive)"


Field: next compound
Using known records, supply growth for CC(=O)/C=C/c1ccc(N(CCO)Cc2ccc(C(C)(C)C)cc2)cc1
83.7% (inactive)

---

test system: COLO 205 colon; assay: NCI-60 one-dose screen, 48 h (100 = growth as untreated, 0 = no growth, -100 = all killed); settings: 10 µM unless noted
The panel holds about 83,000 compounds, 20% with a hit somewhere; the sample as a whole holds those more often. Active and inactive are the calls of the source. The calls were made as follows: active = growth percent below 10; inactive = the rest.
Quantity Measured: growth

[[record]]
item_smiles = "Cc1ccc(-c2nc3nc(-c4ccccc4)nc(N4CCCNCC4)c3o2)cc1"
quantity_measured = "growth"
assay_value = "-86.9% (active)"

[[record]]
item_smiles = "COc1cc(CNC(=O)CCCC/C=C/C(C)C)ccc1OCc1cn(-c2ccc([N+](=O)[O-])cc2)nn1"
quantity_measured = "growth"
assay_value = "118% (inactive)"

[[record]]
item_smiles = "O=C(c1ccc(Nc2nccc(NCCCNc3ccnc4cc(Cl)ccc34)n2)cc1)N1CCCCC1"
quantity_measured = "growth"
assay_value = "27.2% (inactive)"

[[record]]
item_smiles = "CCCCSc1ccc2nc(-c3ccc(OCCCN=C(N)N)cc3)cn2c1"
quantity_measured = "growth"
assay_value = "51.1% (inactive)"


Field: next compound
Using known records, supply growth for COc1ccc(C/C(C)=C(\c2ccc(O)cc2)c2ccc(OCCCN(C)C)cc2)cc1
97% (inactive)

Reference source for all entries: PubChem BioAssay (NCI)
